Target: N-formyl peptide receptor (FPR), nonactivating mutant D71A
Experimental Details: single-molecule TIRF imaging, 2D-3D Scatchard plot
Property Measured: Kd (nM)

[[record]]
substance = "N-formyl-Nle-Leu-Phe-Nle-Tyr-Lys conjugated with Alexa Fluor 594 (peptide)"
measurement = 2.2


Origin of measurements: paper PMC3101103
